# ASSAY_PROCEDURE: Novel Modifiers of Survival Motor Neuron (SMN) Protein: Gene Identification via Genome-wide siRNA Screen;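 note: luminescence tracks full-length SMN protein made from the SMN2 reporter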
# TEST_PARAMETERS: HEK293T SMN2-luciferase reporter, siRNA knockdown, 72 h; actives lie on both sides
# Experimental: Spinal muscular atrophy (SMA) is the most common neuromuscular autosomal recessive disorder and one of the leading genetic causes of infant death. […] Briefly, 1 pmol of each siRNA was spotted to a well of a 384-well plate (Corning, Corning, NY) and 20 microL of serum-free DMEM containing […] of Lipofectamine RNAiMax (Life Technologies, Carlsbad, CA) was then added to each well. […] Raw luminescence reads were normalized to Ambion(R) Silencer(R) Negative Control #2 siRNA, then log10 transformed. […]
About 1,400 (4.5%) of roughly 31,000 sequences were called active.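 Rule for the calls: active = median seed-adjusted z-score above 1 or below -1; inactive = the rest.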 The full list was thinned out, with actives kept by preference.
In this exercise, the only acceptable responses are true (1) (active), false (0) (inactive)

Q: Assay outcome for CAUCAAUGACUCACCCUUUTT against RTN4R : what was it?
Ans: false (0)
